Each entry below carries its reported scaled lipid accumulation score.
# Test system: primary human hepatic stellate cells (donor 1)
# TEST PROTOCOL: scaled lipid accumulation score (0 = DMSO-like, 1 = nortriptyline-like); higher = stronger HSC inactivation (lipid re-accumulation), active = hit call of the paper
# MEASUREMENT PARAMETERS: library stock concentration: 80 uM; 48 h
The whole screen tested about 5,800 compounds, of which about 620 (11%) showed activity. The full list was thinned out, with actives kept by preference.
ASSAY METRIC: scaled lipid accumulation score

# COMPOUND, DATA VALUE
measured = [
    ("COc1ccc(N(C(=O)Oc2c(C)cccc2C)c2ccnc(Nc3ccc(N4CCN(C)CC4)cc3)n2)c(OC)c1", "0.038 (inactive)"),
    ("O=C(NC(COc1ccc2[nH]c(=O)[nH]c2c1)c1ccccc1)c1cccn(Cc2ccc(F)c(F)c2)c1=O (centres undefined)", "≤ 0 (inactive)"),
    ("CCn1cnc2c(Nc3cccc(Cl)c3)nc(N[C@@H]3CCCC[C@@H]3N)nc21", "≤ -0.016 (inactive)"),
    ("COc1ccc2c(c[n+](C)c3c4cc5c(cc4ccc23)OCO5)c1OC [Chelerythrine chloride]", "≤ -0.016 (inactive)"),
    ("O=c1[nH]c2ccccc2n1C1CCN(Cc2ccc(-c3[nH]c4cc5ncnc5cc4nc3-c3ccccc3)cc2)CC1", "≤ 0 (inactive)"),
    ("Cc1[nH]nc2ccc(-c3cncc(OC[C@@H](N)Cc4c[nH]c5ccccc45)c3)cc12", "0.308 (inactive)"),
    ("N[C@@H]1C[C@H]1c1ccccc1.N[C@H]1C[C@@H]1c1ccccc1", "≤ 0 (inactive)"),
    ("CCN1CCN(C(=O)Cc2ccc(Nc3ncc(F)c(Nc4ccc(C(=O)Nc5ccccc5Cl)cc4)n3)cc2)CC1", "≤ 0 (inactive)"),
    ("CC1=C(O)C(=O)C=C2C1=CC=C1[C@@]2(C)CC[C@@]2(C)[C@@H]3C[C@](C)(C(=O)O)CC[C@]3(C)CC[C@]12C", "0.019 (inactive)"),
]

====

# System: primary human hepatic stellate cells (donor 1)
# TEST PROTOCOL: scaled lipid accumulation score (0 = DMSO-like, 1 = nortriptyline-like); higher = stronger HSC inactivation (lipid re-accumulation), active = hit call of the paper
# MEASUREMENT PARAMETERS: library stock concentration: 2 mM; 48 h
Hit rate of the full screen: of about 5,800 compounds, about 620 (11%) showed activity. Shown is part of a subset that was picked to be rich in actives.
Each entry below carries its reported scaled lipid accumulation score.

# COMPOUND, scaled lipid accumulation score
measured = [
    ("N[C@@H]1C[C@H]1c1ccccc1.N[C@H]1C[C@@H]1c1ccccc1", "≤ 0 (inactive)"),
    ("CCn1cnc2c(Nc3cccc(Cl)c3)nc(N[C@@H]3CCCC[C@@H]3N)nc21", "0.503 (inactive)"),
    ("O=c1[nH]c2ccccc2n1C1CCN(Cc2ccc(-c3[nH]c4cc5ncnc5cc4nc3-c3ccccc3)cc2)CC1", "0.055 (inactive)"),
    ("Cc1sc2c(c1C)C(c1ccc(Cl)cc1)=N[C@H](CC(=O)OC(C)(C)C)c1nnc(C)n1-2", "≤ 0 (inactive)"),
    ("Cc1[nH]nc2ccc(-c3cncc(OC[C@@H](N)Cc4c[nH]c5ccccc45)c3)cc12", "0.593 (inactive)"),
    ("COc1ccc(N(C(=O)Oc2c(C)cccc2C)c2ccnc(Nc3ccc(N4CCN(C)CC4)cc3)n2)c(OC)c1", "≤ 0 (inactive)"),
    ("CN(C)NC(=O)CCC(=O)O [Daminozide]", "≤ 0 (inactive)"),
]
